Parameter: koff. Scope: all listed entries.
# Study Target: T1, recombinant human CEACAM-1/CD66a protein (R&D systems; Cat. No. 2244-CM) (human, UniProt P13688 35-428)
# T1 construct: Bought protein; captured on anti-His (His1K) biosensors in the Octet assay, so it carries a His tag; also called HCCM1; recombinant CEACAM-1/CD66a protein
# T1 sequence (looked up): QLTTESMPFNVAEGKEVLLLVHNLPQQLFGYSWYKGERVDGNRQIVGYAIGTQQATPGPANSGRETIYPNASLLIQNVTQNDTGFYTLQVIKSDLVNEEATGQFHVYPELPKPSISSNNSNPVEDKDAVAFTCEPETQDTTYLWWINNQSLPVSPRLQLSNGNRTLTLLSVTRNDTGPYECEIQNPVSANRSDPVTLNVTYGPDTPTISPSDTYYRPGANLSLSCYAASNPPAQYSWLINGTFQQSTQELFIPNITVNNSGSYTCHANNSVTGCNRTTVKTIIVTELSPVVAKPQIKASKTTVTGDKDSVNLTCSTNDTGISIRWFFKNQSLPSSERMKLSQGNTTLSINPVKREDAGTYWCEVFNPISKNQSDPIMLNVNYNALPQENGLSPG
# Measurement Protocol: Octet QKe biolayer interferometry, anti-His (HIS1K) biosensors, antibody 6.25-400 nM
Only the number, expressed in s⁻¹, is required.

Solved cases (2 shown):
Binder	Observation Type	Measured
4R9_H4-n20 (antibody, human IgG4 S228P, lambda, V domains shown, also called C25-derived clone 4R9_H4-n20) VH: EVQLLESGGGLVQPGGSLRLSCAASGFNFSNYAMSWVRQAPGKGLEWVSVISHGGGSIYYADSVKGRLTISRDNSKNTLYLQMNSLRAEDTAVYYCARDPTKGYAPTFDYWGQGTLVTVSS VL: QSVLTQPPSASGTPGQRVTISCSGSSSNIGNNYVSWYQQLPGTAPKLLIYADSRRPSGVPDRFSGSKSGTSASLAISGLRSEDEADYYCGAWDLSLNGYVFGGGTKLTVLG	koff	0.000333
C25 (antibody, human IgG4 S228P, lambda, V domains shown, Made in ExpiHEK293F cells, protein A purified. huIgG4 is the isotype control and anti-huIgG4 the detection reagent; the isotype is not otherwise stated; also called anti-CEACAM1 antibody C25) VH: EVQLLESGGGLVQPGGSLRLSCAASGFTFSNYAMSWVRQAPGKGLEWVSVISHGGGSIYYADSVKGRLTISRDNSKNTLYLQMNSLRAEDTAVYYCARDPTKGYAPTFDYWGQGTLVTVSS VL: QSVLTQPPSASGTPGQRVTISCSGSSSNIGNNYVSWYQQLPGTAPKLLIYADSKRPSGVPDRFSGSKSGTSASLAISGLRSEDEADYYCGAWDASLNGYVFGGGTKLTVLG	koff	0.000505

// next item, koff requested
In plain terms, 4R26 (antibody, human IgG4 S228P, lambda, V domains shown, also called C25-derived clone 4R26) VH: EVQLLESGGGLVQPGGSLRLSCAASGFTFSNYAMSWVRQAPGKGLEWVSVISHGGGSIYYADSVKGRLTISRDNSKNTLYLQMNSLRAEDTAVYYCARDPTKGYAPTFDYWGQGTLVTVSS VL: QSVLTQPPSASGTPGQRVTISCSGSSSNIGNNYVSWYQQLPGTAPKLLIYADSKRLSGVPDRFSGSKSGTSASLAISGLRSEDEADYYCGAWDGRLNGYVFGGGTKLTVLG has a documented koff of 0.000266

Reference source for all entries: patent US20200109196A1
